Method description: ML residues in milk of lactating dairy cows after single IM dose of ML/vaccine combination (LC-MS/MS)
Type: in vivo, Dairy cows (Friesian and Friesian cross)
Experimental conditions: female, Friesian and Friesian cross, cattle, milk, intramuscular, 0.4 mg/kg, nominal 0.4 mg/kg single IM dose of ML/Rotavec Corona combination; milk (whole milk); individual cows; read-out: ML residue in milk, Day 21
Description: Study Objectives: 1) To measure ML residues in milk and tissues of lactating dairy cows after a single dose of an experimental formulation of eprinomectin, ivermectin, moxidectin or doramectin combined with an inactivated rotavirus, coronavirus and Escherichia coli vaccine was administered by intramuscular injection at 0.3 and 0.4 mg macrocyclic lactone/kg bodyweight. […] The formulations were administered by deep intramuscular injection in the anterior neck region. […] The time of treatment was recorded. […]
Readout name: concentration at 21 day (ng/g)
Write down the numeric answer in ng/g and omit the unit.

Q) Would you kindly share the measured concentration at 21 day for CO[C@H]1C[C@H](O[C@H]2[C@H](C)O[C@@H](O[C@@H]3/C(C)=C/C[C@@H]4C[C@@H](C[C@]5(C=C[C@H](C)[C@@H](C6CCCCC6)O5)O4)OC(=O)[C@@H]4C=C(C)[C@@H](O)[C@H]5OC/C(=C\C=C\[C@@H]3C)[C@]54O)C[C@@H]2OC)O[C@@H](C)[C@@H]1O ?
A) 1
